Experiment: Inhibition of EFGR Ex19del/T790M/C797S triple mutant (unknown origin) expressed in human PC-9-VanR cells assessed as inhibition of EGF-induced phosphorylation measured after 2 hrs by ELISA
Format: cell-based
Settings: PC-9, 2 h
PARAMETER: IC50 (µM)

[I] COc1cc(N2CCC(N3CCN(C)CC3)CC2)ccc1Nc1ncc(Cl)c(Nc2ccccc2P(C)(C)=O)n1
[II] COc1cc(N2CCOCC2)c(-c2cnn(C)c2)cc1Nc1ncc(Cl)c(Nc2ccccc2P(C)(C)=O)n1
IN: Compare reported IC50 values for I and II . Which is lower? Kindly state the label of the option you pick.
OUT: II
(II: 0.739 µM, I: 2.68 µM)

----------
Assay: Intrinsic clearance in human liver microsomes
Assay type: ADME, Microsome
Conditions: read-out: CLH
PARAMETER: microsomal CLint (µL/min/mg)

Reference set, count: 4
molecule_smiles=COc1cc(N2CCOCC2)c(-c2cn[nH]c2)cc1Nc1ncc(Cl)c(Nc2ccccc2P(C)(C)=O)n1 readout_unit=µL/min/mg value_observed=28
molecule_smiles=COc1cc(N2CCC(N3CCN(C)CC3)CC2)c(-c2cn[nH]c2)cc1Nc1ncc(Cl)c(Nc2ccccc2P(C)(C)=O)n1 readout_unit=µL/min/mg value_observed=28
molecule_smiles=CCP(=O)(CC)c1ccccc1Nc1nc(Nc2cc(-c3cnn(C)c3)c(N3CCOCC3)cc2OC)ncc1Cl readout_unit=µL/min/mg value_observed=71
molecule_smiles=COc1cc(N2CCOCC2)c(-c2cnn(C)c2)cc1Nc1ncc(Cl)c(Nc2ccccc2P(C)(C)=O)n1 readout_unit=µL/min/mg value_observed=49

[P] COc1cc(N2CCC(N(C)C)CC2)c(-c2cn[nH]c2)cc1Nc1ncc(Cl)c(Nc2ccccc2P(C)(C)=O)n1
[Q] COc1cc(N2CCC(N3CCN(C)CC3)CC2)ccc1Nc1ncc(Cl)c(Nc2ccccc2P(C)(C)=O)n1
IN: Which record shows the lower microsomal CLint: the first, P , or the second, Q ? Answer = label.
OUT: Q

[I] COc1cc(N2CCC(N(C)C)CC2)c(-c2cnn(C)c2)cc1Nc1ncc(Cl)c(Nc2ccccc2P(C)(C)=O)n1
[II] COc1cc(N2CCC(N3CCN(C)CC3)CC2)c(-c2cnn(C)c2)cc1Nc1ncc(Cl)c(Nc2ccccc2P(C)(C)=O)n1
IN: Record comparison, field microsomal CLint: mark the lower of I and II . State the label of the item chosen.
OUT: II
(II: 21 µL/min/mg, I: 31 µL/min/mg)

----------
Test: Aqueous solubility of the compound at pH 7.4
Assay type: physicochemical
Conditions: buffer
PARAMETER: solubility

Consider the following illustrative entries.
molecule_smiles=COc1cc(N2CCOCC2)c(-c2cnn(C)c2)cc1Nc1ncc(Cl)c(Nc2ccccc2P(C)(C)=O)n1 parameter=solubility value_observed="8.7 µM"
molecule_smiles=COc1cc(N2CCC(N3CCN(C)CC3)CC2)c(-c2cn[nH]c2)cc1Nc1ncc(Cl)c(Nc2ccccc2P(C)(C)=O)n1 parameter=solubility value_observed="> 1000 µM"
molecule_smiles=COc1cc(N2CCC(N(C)C)CC2)c(-c2cnn(C)c2)cc1Nc1ncc(Cl)c(Nc2ccccc2P(C)(C)=O)n1 parameter=solubility value_observed="> 1000 µM"

Could you now consider this next compound?
IN: Given `COc1cc(N2CCC(N(C)C)CC2)c(-c2cn[nH]c2)cc1Nc1ncc(Cl)c(Nc2ccccc2P(C)(C)=O)n1` , state its recorded solubility.
OUT: > 1000 µM

All figures here come from ChEMBL document CHEMBL5030539.
